# Protocol Notes: qHTS for Inhibitors of TGF-b; note: nearly all actives have a fitted effect of over 65% in size
# Test Parameters: HepG2 CAGA-GFP TGF-b/SMAD3 reporter, GFP fluorescence, 18 h, TGF-beta stimulated, 500 pg/mL final; series mostly up to 46.1 µM
Among all 410,000 compounds or so, about 5,000 (1.2%) were called active. Roughly 13% stayed inconclusive and do not appear here. Calls come from the whole dose curve; as a rule, active = well fitted inhibition curve with a large enough effect; inconclusive = small, poorly fitted or top-dose-only effect; inactive = no such curve, though single readings can be large or run the other way. This is one part of a sample in which actives are shown more often than they occur.
Answer with one of the outcomes given here: TRUE for active, FALSE for inactive

[[record]]
compound = "COc1ccccc1CC1(C)C(=O)Nc2ccc(OC(F)(F)F)cc21 (stereo unspecified)"
class = "TRUE"

[[record]]
compound = "Cc1ccc(-c2noc(-c3nnn(-c4cccc(C(F)(F)F)c4)c3N)n2)cc1"
class = "FALSE"

[[record]]
compound = "CSc1n[nH]c(-c2ccco2)n1"
class = "FALSE"


Challenge: What call does the record list for CCOC(=O)c1c(C)[nH]c2c1-c1ccccc1C(=O)C2=O ?
Response given: TRUE

Challenge: Please share the test call associated with Cc1ccc(CC2(C)C(=O)Nc3ccc(OC(F)(F)F)cc32)cc1 (stereo unspecified) .
Response given: TRUE

Challenge: Query: recorded result category for COc1ccccc1CNS(=O)(=O)c1ccc2c(c1)NC(=O)CS2 in this test
Response given: FALSE

Challenge: What outcome does the record of this test show for CCOC(=O)c1[nH]c2ccccc2c1N=C(C)N(CC)CC ?
Response given: FALSE

Challenge: What classification did COc1cc(SC#N)ccc1N=Cc1c(C)[nH]n(-c2ccc(C)cc2)c1=O end up with in this test?
Response given: TRUE

Challenge: How did this test come out for C[C@@H]1C(c2ccc(F)cc2)=NN(c2ccc(Br)cc2)[C@H]1C(=O)N1CCOC1=O ?
Response given: TRUE

Challenge: Returns: the outcome recorded for NC1=CC(=O)C(=O)c2cccnc21 in this assay.
Response given: TRUE

Challenge: Test call, this compound: CCOC(=O)c1c(SCC(=O)Nc2cccc(C)c2C)nc(=O)[nH]c1C
Response given: FALSE

* * *

# Protocol Notes: qHTS for Inhibitors of TGF-b; note: nearly all actives have a fitted effect of over 65% in size
# Test Parameters: HepG2 CAGA-GFP TGF-b/SMAD3 reporter, GFP fluorescence, 18 h, TGF-beta stimulated, 500 pg/mL final; series mostly up to 46.1 µM
Screen size: about 410,000 compounds; about 5,000 (1.2%) were called active. Not shown: some 13% with an inconclusive outcome. Calls follow the shape of the dose curve; as a rule, active = well fitted inhibition curve with a large enough effect; inconclusive = small, poorly fitted or top-dose-only effect; inactive = no such curve, though single readings can be large or run the other way. For the sample, actives were picked, then their nearest neighbours and some compounds at random.
Allowed answers: t (active), f (inactive)

Answered examples (3):
[[record]]
line_notation = "C/C(=N\\NC(=O)Cc1ccc(Cl)cc1)c1ccccn1"
class = "t"

[[record]]
line_notation = "CCNC(=S)N1CCN(c2ncccn2)CC1"
class = "f"

[[record]]
line_notation = "Cc1ccc(-n2ncc(C(=O)NC3CC3)c2C2CCN(C(=O)OC(C)(C)C)CC2)c(C)c1"
class = "f"


Challenge: Given CC(=NNC(=S)N1CCCCCC1)c1ccccn1 , state the outcome it received in this test.
Response given: t

Challenge: Give the logged outcome of this assay for the following compound: O=C(Cc1ccc(Cl)cc1)c1ccccc1
Response given: f

Challenge: Please let me know the test result on file for CCOc1ccc(NC(=S)N2CCCCCC2)cc1 .
Response given: f

* * *

# Protocol Notes: qHTS for Inhibitors of TGF-b; note: nearly all actives have a fitted effect of over 65% in size; note: potency is the fitted concentration of half-maximal effect
# Test Parameters: HepG2 CAGA-GFP TGF-b/SMAD3 reporter, GFP fluorescence, 18 h, TGF-beta stimulated, 500 pg/mL final; series mostly up to 46.1 µM
Screen size: about 410,000 compounds; about 5,000 (1.2%) were called active. Not shown: some 13% with an inconclusive outcome. Many of the other results were omitted from the sample, so actives are more common in it than they were.
Measured Metric: Potency

[[record]]
compound = "Cc1ccc2sc(N(Cc3cccnc3)C(=O)C3COc4ccccc4O3)nc2c1C (stereo not given)"
readout_value = "inactive"

[[record]]
compound = "CCOC(=O)c1ccc(NC(=O)CC2C(=O)N(c3ccccc3)C(=O)N2Cc2cccs2)cc1 (stereo not given)"
readout_value = "inactive"

[[record]]
compound = "CCc1ccc(NC(=O)Nc2ccncc2)cc1"
readout_value = "inactive"

[[record]]
compound = "COC(=O)c1cnn(-c2ccc(C(=O)Nc3ccc(OC(F)(F)F)cc3)cc2)c1N"
readout_value = "inactive"

[[record]]
compound = "COc1ccccc1NC(=O)c1cc(S(=O)(=O)NCCc2ccccc2)ccc1F"
readout_value = "inactive"


Challenge: Please look at this compound and report its Potency: COc1ccc(OC)c(C2C3=C(N=c4s/c(=C\c5cccc(O)c5)c(=O)n42)c2ccccc2CC3)c1 (stereo not given)
Response given: 15.8 µM (active)

Challenge: Report Potency, nothing else, for this compound: CC(=O)c1nn(-c2ccc(OC(F)(F)F)cc2)nc1Nc1ccccc1
Response given: inactive

Challenge: Complete the entry with Potency for Cc1ccc(NC(=O)Nc2nnc(-c3ccncc3)s2)cc1
Response given: 11.2 µM (active)

Challenge: Read off the recorded Potency for CCCn1c2ccccc2c2cnn(CC(=O)NCCCOC(C)C)c(=O)c21
Response given: inactive

Challenge: Entry CC(C)=CC(=O)Nc1nnc(-c2ccc(F)cc2)s1 needs its Potency filled in; supply it.
Response given: inactive

* * *

# Protocol Notes: qHTS for Inhibitors of TGF-b; note: nearly all actives have a fitted effect of over 65% in size
# Test Parameters: HepG2 CAGA-GFP TGF-b/SMAD3 reporter, GFP fluorescence, 18 h, TGF-beta stimulated, 500 pg/mL final; series mostly up to 46.1 µM
Screen size: about 410,000 compounds; about 5,000 (1.2%) were called active. Inconclusive results (about 13%) are left out. Calls come from the whole dose curve; as a rule, active = well fitted inhibition curve with a large enough effect; inconclusive = small, poorly fitted or top-dose-only effect; inactive = no such curve, though single readings can be large or run the other way. For the sample, actives were picked, then their nearest neighbours and some compounds at random.
Respond with a class label; see active, inactive

Example entries and their recorded answers appear below.
[[record]]
compound = "O=C(Cn1ncc2c3ccccc3n(Cc3ccccc3)c2c1=O)NC1CCCCCC1"
class = "inactive"

[[record]]
compound = "CN(C)c1ccc(/C=C2\\C=Cc3ccccc32)cc1Br"
class = "inactive"

[[record]]
compound = "Cc1ccccc1Cn1nc(C)c(NC(=O)c2cc(-c3ccc(F)cc3)on2)c1C"
class = "inactive"

[[record]]
compound = "Cc1ccc(Nc2nc(CSc3nnc(-c4ccncc4)n3-c3ccccc3C)cs2)cc1"
class = "active"

[[record]]
compound = "Cc1ccc(-c2noc(CSc3nnc(-c4ccncc4)n3-c3ccc(F)cc3)n2)cc1"
class = "inactive"

[[record]]
compound = "O=C(OCC(=O)N1CCN(C(=O)c2ccco2)CC1)c1c(Cl)cccc1Cl"
class = "inactive"


Challenge: What is the recorded call for this compound in the test? ClC/C=C/C[n+]1ccccc1Cl
Response given: inactive

Challenge: Tell me the recorded outcome of this test for CCN1CCc2nc3sc(C(=O)Nc4ccccc4OC(F)(F)F)c(N)c3cc2C1 .
Response given: inactive

Challenge: Hi, sorry to bother you, what did the test record for COc1ccccc1CNC(=O)c1ccc(-n2c(C)cc3c2CCCC3)cc1 ?
Response given: inactive

Challenge: Record lookup: outcome of this test for Cc1ccc(-n2c(SCC(=O)N3c4ccccc4Sc4ccccc43)nnc2-c2ccncc2)cc1 ?
Response given: inactive

Challenge: Test call for this compound, please: Cc1ccc(-c2cn3c(n2)sc2cc(C(=O)NCCCc4ccccc4)ccc23)cc1
Response given: inactive

Challenge: Assay result, entry CCc1ccc(-n2nnc(-c3nc(-c4ccccc4)no3)c2C)cc1 — outcome?
Response given: inactive

Challenge: Test call for this compound, please: Cn1c(NCc2cccnc2)nc2cc(-c3ccc(F)cc3)sc2c1=O
Response given: inactive

Challenge: Given Cc1cccc(NC(=O)c2ccc3nc(C(C)C)oc3c2)c1C , state the outcome it received in this test.
Response given: inactive

* * *

# Protocol Notes: qHTS for Inhibitors of TGF-b; note: nearly all actives have a fitted effect of over 65% in size
# Test Parameters: HepG2 CAGA-GFP TGF-b/SMAD3 reporter, GFP fluorescence, 18 h, TGF-beta stimulated, 500 pg/mL final; series mostly up to 46.1 µM
Hit rate of the full screen: of about 410,000 compounds, about 5,000 (1.2%) were called active. About 13% were inconclusive and are not listed. Calls follow the shape of the dose curve; as a rule, active = well fitted inhibition curve with a large enough effect; inconclusive = small, poorly fitted or top-dose-only effect; inactive = no such curve, though single readings can be large or run the other way. The full list was thinned out, with actives kept by preference.
Hi there, use one of these labels in your reply, thanks! active, inactive

Challenge: Test call for this molecule, please: O=C(Nc1ccc(Cl)cc1)c1cnn2c1NC(=C1CC1)C=C2C(F)F
Response given: inactive

Challenge: Identify the outcome logged in this assay for the molecule shown: CCOc1ccc(CCN2C(=S)N([C@@H](CC(C)C)CN3CCC[C@@H]3CN3C(=S)NC[C@@H]3Cc3ccc(O)cc3)C[C@@H]2CC(C)C)cc1
Response given: active

Challenge: Each molecule tested received a call. Report the one for CCCCN(C)S(=O)(=O)c1ccc(C(=O)Nc2sc3c(c2C(N)=O)CC(C)(C)NC3(C)C)cc1 .
Response given: inactive

Challenge: What is the recorded call for this molecule in the test? COCCNC(=O)CSc1c(C)cnc2c1c(=O)n(C)c(=O)n2C
Response given: inactive

Challenge: Lab log entry: CCC(=O)N1CCc2cc(S(=O)(=O)NC(Cc3ccccc3)C(=O)NCc3ccc(C)cc3)ccc21 (centres undefined) — outcome as called in the assay?
Response given: inactive

Challenge: Please share the test call associated with COc1ccc(-c2csc(NC3OC(=O)c4ccccc43)n2)cc1 (centres undefined) .
Response given: active

Challenge: Hi, do you know how COc1ccc(Cn2c(C(=O)O)c(CNCc3cccc(OC)c3)c3ccc(C)cc32)cc1 came out in this test?
Response given: inactive

Challenge: Which outcome was assigned to COc1ccc(-c2cnc(SCCNC(=O)c3ccc4c(c3)OCO4)[nH]2)cc1 in this test?
Response given: inactive

Challenge: Status in this test for COc1ccc(CC(N)c2csc(NC(=O)Nc3ccc(C(C)C)cc3)n2)cc1 (centres undefined) ?
Response given: inactive

Values compiled from PubChem BioAssay AID588855.
